METHOD: protein stability index of a GFP-peptide fusion (yeast GPS) (PSI 1-4); higher = more stable; sorted into four equal gates, so the index is relative within each strain
PROTOCOL_CONDITIONS: san1∆
Below: a set of entries, each annotated with reported protein stability index.

ADVLVDRVVSSDSLDIA [SRP72] ... 1.42
SDIISMLQISDDNEMTR [RRI2] ... 3.2
EYIDAEEEESILIAMQP [RPB2] ... 3.13

Tell us which protein stability index value is on record for ANSSTIRVTNSFALPFE [RPN8]
2.73

Tell us which protein stability index value is on record for NYYSNKSNSTGNISSST [REC8]
2.85

Tell us which protein stability index value is on record for IYDFHKMENLMRLIKRV [YJL039C/NUP192]
2.3

Tell us which protein stability index value is on record for RKVENIRTILVNIHHLL [MED7]
1.5

Tell us which protein stability index value is on record for ESLYEPNLEPEDLFETI [PUP3]
2.99

Tell us which protein stability index value is on record for AGVQGSKVSKQQAKGAF [RPL24B]
3.19

Tell us which protein stability index value is on record for KPYSGKLLKVCLTMFED [ECM29]
2.67
